Target: T1, full-length human IL-36R on cells (human, UniProt Q9HB29 20-575)
T1 sequence (looked up): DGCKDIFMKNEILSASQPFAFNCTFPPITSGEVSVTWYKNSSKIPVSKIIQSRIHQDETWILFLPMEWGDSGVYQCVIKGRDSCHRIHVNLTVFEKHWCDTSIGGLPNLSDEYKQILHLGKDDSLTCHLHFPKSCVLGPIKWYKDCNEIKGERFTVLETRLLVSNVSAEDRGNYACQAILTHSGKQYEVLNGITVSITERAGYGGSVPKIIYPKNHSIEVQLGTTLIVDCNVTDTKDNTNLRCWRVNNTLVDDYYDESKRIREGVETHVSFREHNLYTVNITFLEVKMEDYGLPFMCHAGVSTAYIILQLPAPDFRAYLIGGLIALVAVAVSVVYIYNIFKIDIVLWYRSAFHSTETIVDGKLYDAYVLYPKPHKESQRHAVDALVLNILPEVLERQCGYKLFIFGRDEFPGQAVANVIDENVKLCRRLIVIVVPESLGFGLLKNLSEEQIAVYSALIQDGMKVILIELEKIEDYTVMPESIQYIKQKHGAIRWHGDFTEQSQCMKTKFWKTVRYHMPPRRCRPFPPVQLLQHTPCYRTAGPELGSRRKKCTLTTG
Assay: cell-based or functional assay
// reported IC50 [M], NFκB-luciferase, 20 pM hIL-36α per item
Measurement kind: IC50 [M], NFκB-luciferase, 20 pM hIL-36α (M)

INSERT INTO measurements (binder, value_units, result) VALUES
  ('H4H14731P (antibody, human IgG4 S228P, kappa, V domains shown) VH: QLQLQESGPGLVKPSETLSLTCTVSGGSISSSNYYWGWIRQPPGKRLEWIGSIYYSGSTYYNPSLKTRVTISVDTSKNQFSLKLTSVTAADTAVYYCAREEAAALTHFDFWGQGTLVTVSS VL: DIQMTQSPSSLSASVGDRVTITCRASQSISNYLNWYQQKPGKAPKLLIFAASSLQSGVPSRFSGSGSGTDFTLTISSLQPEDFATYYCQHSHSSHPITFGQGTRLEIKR', 'M', '7.8e-10'),
  ('H4H14709P (antibody, human IgG4 S228P, kappa, V domains shown) VH: EVQLVESGGGLVQPGGSLRLSCAASGFTFSDYAMSWVRQAPGKGLEWVSGISGNGGDTYYGDFVKGRFTISRDNSKNTLYLQMNSLRGEDTAAYFCVIDLDYWGQGTLVTVSS VL: DIQMTQSPSTLSASEGDRVTITCRASQSISSWLAWYQQKPGKAPRLLIYKASILGDGVPSRFSGSGSGTEFTLTISSLQPDDFATYYCHQYNSYLWTFGQGTKVEIKR', 'M', '1.4e-10'),
  ('H4H14757P (antibody, human IgG4 S228P, kappa, V domains shown) VH: EVQLVESGGGLVQPGRSLRLSCTASGFTFDDYAMHWVRQAPGKGLEWVSGIRWNGGSIGYVDSVKGRFTISRDNAKKSLHLQMNSLKTEDTALYYCAKDIGDILTGFYGEYGMDVWGQGTTVTVSS VL: DIQMTQSPSSLSASEGDRVTITCRASQSISSYLNWYQQKAGKAPNLLIYAASSLQSGVPSRFSGSGSGTEYTLTISSLQPEDFATYYCQQSYIIPYTFGQGTKLEIKR', 'M', '1.8e-10'),
  ('H4H14708P2 (antibody, human IgG4 S228P, kappa, V domains shown) VH: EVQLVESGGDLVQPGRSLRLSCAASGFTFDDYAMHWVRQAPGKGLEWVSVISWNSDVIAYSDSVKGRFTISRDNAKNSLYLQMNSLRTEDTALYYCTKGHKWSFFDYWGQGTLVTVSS VL: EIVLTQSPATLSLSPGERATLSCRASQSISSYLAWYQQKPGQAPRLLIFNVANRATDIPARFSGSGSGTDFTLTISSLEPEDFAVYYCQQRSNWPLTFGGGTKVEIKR', 'M', '1.3e-10'),
  ('H4H14700P2 (antibody, human IgG4 S228P, kappa, V domains shown) VH: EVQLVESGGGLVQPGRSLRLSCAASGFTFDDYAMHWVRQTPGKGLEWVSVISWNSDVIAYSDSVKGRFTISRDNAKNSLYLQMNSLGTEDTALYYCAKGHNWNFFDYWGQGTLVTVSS VL: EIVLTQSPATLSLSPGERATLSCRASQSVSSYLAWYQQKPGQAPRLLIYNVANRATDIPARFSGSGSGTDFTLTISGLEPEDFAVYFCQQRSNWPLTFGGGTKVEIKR', 'M', '1.9e-10'),
  ('H4H14758P (antibody, human IgG4 S228P, kappa, V domains shown) VH: EVQLVESGGGLVQPGRSLRLSCAASGFTFDDYAMHWVRQAPGKGLEWVSSVRWNGGIIGYADSVKGRFTISRDNAKNSLYLQMNSLRPEDTALYYCAKDIGDVLTGYYGEYGMDVWGQGTTVTVSS VL: DIQMTQSPSSLSASVGDRVTIACRASQSITTYLNWYQQKPGKAPKLLIYAASSLQSGVPSRFSGSGSGTDFTLTISSLQPEDFATYYCQQSYISPYTFGQGTKLEIKR', 'M', '1.2e-10');
